tested on: Staphylococcus aureus; assay: Susceptibility testing, NCCLS microdilution MIC; format: cell-based; conditions: ATCC25923, S. aureus ATCC 25923, Example A′, read-out: MIC S. aureus
RECORDED_METRIC: MIC (µg/mL)
Value expressed in µg/mL; do not type the unit.

Solved cases (2 shown):
CS[C@H]1O[C@H]([C@H](NC(=O)C2CC[C@H](CCCCF)CCN2)C(C)C)[C@H](O)[C@H](O)[C@H]1O (stereo in doubt)	0.06
CCCc1cn(CCC[C@@H]2CCN[C@H](C(=O)N[C@@H]([C@H]3O[C@H](SC)[C@H](O)[C@@H](O)[C@H]3O)[C@H](C)Cl)CC2)nn1	1

Proceed to the following item.
Documented MIC of CS[C@H]1O[C@H]([C@H](NC(=O)[C@@H]2CC[C@H](CCCC(F)F)CCN2)[C@H](C)Cl)[C@H](O)[C@H](O)[C@H]1O : 0.06

###

Listing of entries alongside the reported log10 of MIC.
system: Staphylococcus aureus; test: Susceptibility testing, NCCLS microdilution MIC; format: cell-based; settings: ATCC25923, S. aureus ATCC 25923, Example A′, read-out: MIC S. aureus
Please note: log10 values; quantity MIC; unit µg/mL.

CS[C@H]1O[C@H]([C@H](NC(=O)C2CC[C@H](CCCC#N)CCN2)[C@H](C)Cl)[C@H](O)[C@H](O)[C@H]1O (stereo in doubt)	-0.90
CS[C@H]1O[C@H]([C@H](NC(=O)C2CC[C@H](CCCO)CCN2)[C@H](C)Cl)[C@H](O)[C@H](O)[C@H]1O (stereo in doubt)	-0.30
CS[C@H]1O[C@H]([C@H](NC(=O)C2CC[C@H](CCCCC#N)CCN2)[C@H](C)Cl)[C@H](O)[C@H](O)[C@H]1O (stereo in doubt)	-0.90
CS[C@H]1O[C@H]([C@H](NC(=O)C2CC[C@H](CCCF)CCN2)[C@H](C)Cl)[C@H](O)[C@H](O)[C@H]1O (stereo in doubt)	-1.52

Documented log10 of MIC of CS[C@H]1O[C@H]([C@H](NC(=O)C2CC[C@H](CCCCF)CCN2)[C@H](C)Cl)[C@H](O)[C@H](O)[C@H]1O (stereo in doubt) : -1.52

Documented log10 of MIC of CCC[C@@H]1C[C@@H](C(=O)N[C@@H]([C@H]2O[C@H](SC)[C@H](O)[C@@H](O)[C@H]2O)[C@H](C)Cl)N(C)C1 [clindamycin, reference compound] : -0.90

Documented log10 of MIC of CS[C@H]1O[C@H]([C@H](NC(=O)C2CC[C@H](CCCn3ccnn3)CCN2)[C@H](C)Cl)[C@H](O)[C@H](O)[C@H]1O (stereo in doubt) : -0.30

Documented log10 of MIC of CS[C@H]1O[C@H]([C@H](NC(=O)[C@@H]2CC[C@H](CCCn3cc(C(C)C)nn3)CCN2)[C@H](C)Cl)[C@H](O)[C@H](O)[C@H]1O : 0.00

Documented log10 of MIC of CS[C@H]1O[C@H]([C@H](NC(=O)C2CC[C@H](CCCF)CCN2)C(C)C)[C@H](O)[C@H](O)[C@H]1O (stereo partly drawn) : -1.22

Documented log10 of MIC of COCCCC[C@@H]1CCN[C@H](C(=O)N[C@@H]([C@H]2O[C@H](SC)[C@H](O)[C@@H](O)[C@H]2O)[C@H](C)Cl)CC1 : -1.22

Documented log10 of MIC of COCCC[C@@H]1CCN[C@H](C(=O)N[C@@H]([C@H]2O[C@H](SC)[C@H](O)[C@@H](O)[C@H]2O)[C@H](C)Cl)CC1 : -1.22

Documented log10 of MIC of CS[C@H]1O[C@H]([C@H](NC(=O)C2CC[C@H](CCCCO)CCN2)[C@H](C)Cl)[C@H](O)[C@H](O)[C@H]1O (stereo in doubt) : -0.60

###

Listing of entries alongside the reported MIC.
test system: Enterococcus faecalis; test: Susceptibility testing, NCCLS microdilution MIC; format: cell-based; settings: Enterococcus faecalis; Example A; strain ATCC29212; 16-20 h at 35° C.; read-out: MIC against Enterococcus faecalis strain ATCC29212

Solved cases (2 shown):
CS[C@H]1OC([C@H](NC(=O)[C@@H]2C[C@H](CCC3CCC3)CCN2)[C@H](C)Cl)[C@H](O)[C@H](O)[C@H]1O (stereo in doubt)	≤ 0.125 µg/mL
CCC[C@@H]1C[C@@H](C(=O)N[C@@H]([C@H]2O[C@H](SC)[C@H](O)[C@@H](O)[C@H]2O)[C@H](C)Cl)N(C)C1 [clindamycin, reference compound]	> 8 µg/mL

Proceed to the following item.
Documented MIC of CCCCCC1CCN[C@H](C(=O)N[C@@H]([C@H]2O[C@H](SC)[C@H](O)[C@@H](O)[C@H]2O)[C@H](C)Cl)CC1 (stereo partly drawn) : ≤ 0.125 µg/mL

###

tested on: Staphylococcus aureus; experiment: Susceptibility testing, NCCLS microdilution MIC; assay type: cell-based; settings: ATCC25923, S. aureus ATCC 25923, Example A′, read-out: MIC S. aureus
RECORDED_METRIC: MIC (µg/mL)
Value expressed in µg/mL; do not type the unit.

CS[C@H]1O[C@H]([C@H](NC(=O)[C@@H]2CCCCCN2)[C@H](C)Cl)[C@H](O)[C@H](O)[C@H]1O [VIII(18), reference compound]	4

Documented MIC of CS[C@H]1O[C@H]([C@H](NC(=O)[C@@H]2CC[C@H](CCCCOc3cccnc3)CCN2)[C@H](C)Cl)[C@H](O)[C@H](O)[C@H]1O : 0.125

Documented MIC of CS[C@H]1O[C@H]([C@H](NC(=O)[C@@H]2CC[C@H](CCCOc3cccnc3)CCN2)[C@H](C)Cl)[C@H](O)[C@H](O)[C@H]1O : 0.125

###

tested on: E. coli transcription/translation (bacterial protein synthesis, E. coli S30 extract); test: In vitro inhibition of E. coli transcription and translation assay (TT), cell-free; assay type: biochemical; settings: cell-free E. coli S30 extract
pIC50: −log10 of the molar value.
Note to self: values exactly at 6 are true (1). So pIC50 at or above 6 is true (1), below is false (0).

CS[C@H]1O[C@H]([C@H](NC(=O)C2CC[C@H](CCCO)CCN2)[C@H](C)Cl)[C@H](O)[C@H](O)[C@H]1O (stereo in doubt)	true (1)

Qu. Reported pIC50 reaches at least 6 for CS[C@H]1O[C@H]([C@H](NC(=O)[C@@H]2CC[C@H](CCCCOc3cccnc3)CCN2)[C@H](C)Cl)[C@H](O)[C@H](O)[C@H]1O ?
Ans. true (1)

Qu. Reported pIC50 reaches at least 6 for CS[C@H]1O[C@H]([C@H](NC(=O)[C@@H]2CC[C@H](CCCn3cc(C(C)C)nn3)CCN2)[C@H](C)Cl)[C@H](O)[C@H](O)[C@H]1O ?
Ans. true (1)

Qu. Reported pIC50 reaches at least 6 for CS[C@H]1O[C@H]([C@H](NC(=O)[C@@H]2CCCCCN2)[C@H](C)Cl)[C@H](O)[C@H](O)[C@H]1O [VIII(18), reference compound] ?
Ans. false (0)

Qu. Reported pIC50 reaches at least 6 for CS[C@H]1O[C@H]([C@H](NC(=O)C2CC[C@H](CCCF)CCN2)[C@H](C)Cl)[C@H](O)[C@H](O)[C@H]1O (stereo in doubt) ?
Ans. false (0)

###

tested on: Enterococcus faecalis; test: Susceptibility testing, NCCLS microdilution MIC; format: cell-based; settings: Enterococcus faecalis, ATCC29212; E. faecalis ATCC 29212; Example A′; read-out: MIC E. faecalis
Labelling: MIC reported below 0.1 µg/mL becomes y; at or above becomes n.

CS[C@H]1O[C@H]([C@H](NC(=O)[C@@H]2CC[C@H](CCCCOc3cccnc3)CCN2)[C@H](C)Cl)[C@H](O)[C@H](O)[C@H]1O	n

Qu. Consider CS[C@H]1O[C@H]([C@H](NC(=O)[C@@H]2CC[C@H](CCCOc3cccnc3)CCN2)[C@H](C)Cl)[C@H](O)[C@H](O)[C@H]1O . Does its MIC lie strictly below 0.1 µg/mL?
Ans. n

###

test system: E. coli transcription/translation (bacterial protein synthesis, E. coli S30 extract); experiment: In vitro inhibition of E. coli transcription and translation assay (TT), cell-free; format: biochemical; conditions: cell-free E. coli S30 extract
RECORDED_METRIC: IC50 (nM)
Value expressed in nM; do not type the unit.

COCCCC[C@@H]1CCN[C@H](C(=O)N[C@@H]([C@H]2O[C@H](SC)[C@H](O)[C@@H](O)[C@H]2O)[C@H](C)Cl)CC1	290
CS[C@H]1O[C@H]([C@H](NC(=O)[C@@H]2CC[C@H](CCCOc3cccnc3)CCN2)[C@H](C)Cl)[C@H](O)[C@H](O)[C@H]1O	1100

Documented IC50 of CS[C@H]1O[C@H]([C@H](NC(=O)C2CC[C@H](CCCF)CCN2)C(C)C)[C@H](O)[C@H](O)[C@H]1O (stereo partly drawn) : 760

The origin of these recorded values is patent US7361743B2.
